Tested on: SW-620 colon
MEASUREMENT_DESCRIPTION: NCI-60 one-dose screen, 48 h (100 = growth as untreated, 0 = no growth, -100 = all killed)
CONDITION_INFO: 10 µM unless noted
Compounds without any hit were thinned out: in the full panel of roughly 83,000, 20% have a hit.
OBSERVABLE: growth (%)
API: value field is a number in %; no unit string.

Task: Supply measured growth of CC1=C(C(=O)Nc2ccccc2)C(c2ccc3c(c2)OCO3)NC(=S)N1 (centres undefined) in your reply.
Output: 107

Task: Quickly give me recorded growth for CSc1nn2c(-c3ccc4ccccc4c3)ccnc2c1C#N
Output: 9.09

Task: Determine from records and report growth for C=C(C)[C@@H]1CC[C@]2(C(=O)N3CCN(C)CC3)CC[C@]3(C)[C@H](CC[C@@H]4[C@@]5(C)CC[C@H](OC(=O)c6ccccc6C(=O)O)C(C)(C)[C@@H]5CC[C@]43C)[C@@H]12
Output: 101

Task: Complete the entry with growth for COc1cccc(Nc2ncnc3cc(NC(=O)CCl)ccc23)c1
Output: -73.6

Task: For the compound COc1ccc(/C=C/C(=O)c2cc(OC)c(OC)c(OC)c2)cc1OCC(=O)Nc1nc2ccc(OC(F)(F)F)cc2s1 , report growth.
Output: 6.16

Task: In one line, give reported growth of the entry COc1ccc(/C=C2\COc3ccc(O)cc3C2=O)cc1 .
Output: 84.6

Task: Please look at this compound and report its growth: NC(=O)c1c(NC(=O)c2cccs2)sc2c1CCC(=O)C2
Output: 15.1

Task: Provide measured growth value, entry: Nc1nc(N)c2c(n1)NC(c1ccc(Cl)cc1)C1CCc3ccccc3C1=N2 (centres undefined)
Output: 63.8

Task: Identify the reported growth for the following entry. O=S(=O)(Oc1ccc(Br)cc1)c1ccc(Cl)cc1
Output: 102

* * *

Tested on: UACC-257 melanoma
MEASUREMENT_DESCRIPTION: NCI-60 one-dose screen, 48 h
CONDITION_INFO: 10 µM unless noted
The panel holds about 83,000 compounds, 20% with a hit somewhere; the sample as a whole holds those more often. Activity calls are given as the source filed them. The calls were made as follows: active = growth percent below 10; inactive = the rest.
Valid outcomes are listed here; reply with one: Yes (active), No (inactive)

Task: Give the logged outcome of this assay for the following compound: N#Cc1c(-c2ccccc2)nc(SCc2nnc(-c3ccc(Cl)cc3)o2)[nH]c1=O
Output: No

Task: Hi team, can someone confirm the assay call for COc1cc2c(cc1OCCCCN1CCN(C(=S)SCCC(C#N)(c3ccccc3)c3ccccc3)CC1)N=C[C@@H]1CCCN1C2=O ?
Output: Yes

Task: Hello, I am checking results. What call was entered for O=C1c2ccccc2C(=O)C1c1ccc(Br)cc1 ?
Output: No

Task: // return assay outcome for C=C1C(=O)O[C@H]2[C@H]1CC/C(COC(=O)NCc1ccc(Cn3c(=O)sn(-c4ccc(C#N)cc4)c3=O)cc1)=C\CC[C@@]1(C)O[C@@H]21
Output: No

Task: Tell me the assay call for N#CC1CCc2c(c(-c3ccc4nc(N)sc4c3)nc3ccc4[nH]ncc4c23)C1 (centres undefined) please.
Output: No

Task: Query: recorded result category for O=C(Cn1nnc2ccccc21)N/N=C/c1c[nH]c2ccccc12 in this test
Output: No

Task: Given COc1cnc2c(c1)C(=O)c1c-2n(CCCCl)c(=O)c2ccncc12 , state the outcome it received in this test.
Output: No

Task: Dear all, I need the recorded test outcome for CCc1n(Cc2ccc3ccccc3n2)cc[n+]1Cc1ccc2ccccc2n1 , thank you.
Output: Yes

Task: Query: recorded result category for COC(=O)CC[C@@H]1O[C@@H](c2ccc(F)cc2)[C@@H](O)[C@H]1O in this test
Output: No
